Measured values drawn from patent US20240317735A1 for this set.

TARGET ENTITY: human TLR8 (Homo sapiens)
Sequence (Q9NR97 27-1041): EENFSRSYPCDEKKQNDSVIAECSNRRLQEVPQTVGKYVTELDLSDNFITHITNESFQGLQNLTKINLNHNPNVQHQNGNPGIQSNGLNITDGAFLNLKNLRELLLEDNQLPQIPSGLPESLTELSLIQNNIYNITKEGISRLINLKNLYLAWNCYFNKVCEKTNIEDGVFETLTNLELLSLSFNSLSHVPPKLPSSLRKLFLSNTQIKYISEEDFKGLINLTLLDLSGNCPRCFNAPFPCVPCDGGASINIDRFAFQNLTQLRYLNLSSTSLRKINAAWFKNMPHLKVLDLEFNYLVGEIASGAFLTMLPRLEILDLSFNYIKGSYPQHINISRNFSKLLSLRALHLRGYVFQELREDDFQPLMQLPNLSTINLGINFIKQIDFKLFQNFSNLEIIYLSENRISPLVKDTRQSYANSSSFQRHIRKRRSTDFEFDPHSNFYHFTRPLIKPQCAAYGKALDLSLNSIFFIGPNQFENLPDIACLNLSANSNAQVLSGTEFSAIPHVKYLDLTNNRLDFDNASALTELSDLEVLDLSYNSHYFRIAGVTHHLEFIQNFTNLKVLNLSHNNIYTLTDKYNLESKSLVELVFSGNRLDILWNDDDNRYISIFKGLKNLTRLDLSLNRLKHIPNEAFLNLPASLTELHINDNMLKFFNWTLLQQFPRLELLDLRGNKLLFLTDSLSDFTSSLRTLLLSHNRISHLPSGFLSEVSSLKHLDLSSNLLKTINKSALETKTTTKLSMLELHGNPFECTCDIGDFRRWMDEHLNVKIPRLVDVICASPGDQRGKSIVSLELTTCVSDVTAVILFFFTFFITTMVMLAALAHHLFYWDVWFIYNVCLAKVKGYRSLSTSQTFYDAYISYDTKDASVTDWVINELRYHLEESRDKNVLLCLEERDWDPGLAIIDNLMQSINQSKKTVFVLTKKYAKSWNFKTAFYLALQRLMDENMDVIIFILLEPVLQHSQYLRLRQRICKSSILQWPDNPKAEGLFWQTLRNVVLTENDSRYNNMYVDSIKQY
ASSAY PROCEDURE: HEK293-Blue-hTLR-8 cells assay (SEAP reporter, R848 stimulation)
ASSAY CONTEXT: HEK293-Blue-hTLR8 cells, R848, 20 hrs; read-out: HEK/hTLR8 IC50
Description: The following tests were carried out in order to determine the activity of the compounds of formula (I) and (Ia) in HEK293-Blue-hTLR-7/8/9 cells assay. A stable HEK293-Blue-hTLR-8 cell line was purchased from InvivoGen (Cat. #: hkb-htlr8, San Diego, California, USA). These cells were originally designed for studying the stimulation of human TLR8 by monitoring the activation of NF-κB. […]

STRUCTURE	IC50
C[C@H]1CN(c2ccnc3c2cnn3C)Cc2ccc(N3CCC(N4CC(N)C4)CC3)cc21	< 0.3 nM
C[C@H]1CN(c2ccnc3c2cnn3C)Cc2ccc(N3C[C@@H]4CNCCN4C3=O)cc21	< 0.3 nM
C[C@H]1CN(c2ccnc3c2cnn3C)Cc2ccc(N3CCN(CCN(C)C)CC3)cc21	< 0.3 nM
